- Target Under Test: human MC4R receptor (human, UniProt P32245 1-332)
- Sequence (P32245 whole entry): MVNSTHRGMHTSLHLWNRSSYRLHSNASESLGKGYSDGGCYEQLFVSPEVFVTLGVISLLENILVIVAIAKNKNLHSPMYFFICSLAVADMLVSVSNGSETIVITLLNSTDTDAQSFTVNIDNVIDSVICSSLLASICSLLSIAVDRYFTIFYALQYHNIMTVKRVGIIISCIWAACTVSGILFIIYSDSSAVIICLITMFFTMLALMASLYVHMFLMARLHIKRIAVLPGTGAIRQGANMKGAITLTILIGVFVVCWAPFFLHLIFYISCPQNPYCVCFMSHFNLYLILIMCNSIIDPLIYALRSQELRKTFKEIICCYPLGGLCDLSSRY
- Assay Summary: cell-based or functional assay
Positions of bridges follow the written chain, without caps; N, C: chain ends. Non-standard residues stand in square brackets, D forms with d. NMeR = CN[C@@H](CCCNC(=N)N)C(=O)O; Aib = CC(C)(N)C(=O)O
Test Readout: MC4R selectivity vs MC1R

Binder	MC4R selectivity vs MC1R
Ac-C[Aib]R[dF]RFC-NH2 (disulfide 1-7; SMILES CC(=O)N[C@H]1CSSC[C@@H](C(N)=O)NC(=O)[C@H](Cc2ccccc2)NC(=O)[C@H](CCCNC(=N)N)NC(=O)[C@@H](Cc2ccccc2)NC(=O)[C@H](CCCNC(=N)N)NC(=O)C(C)(C)NC1=O) [CTX-1635]	1.19

Here's the next entry for you.
Which MC4R selectivity vs MC1R is listed for Ac-RC[dA]R[dF][NMeR][dW]C-NH2 (disulfide 2-8; SMILES CC(=O)N[C@@H](CCCNC(=N)N)C(=O)N[C@H]1CSSC[C@@H](C(N)=O)NC(=O)[C@@H](Cc2c[nH]c3ccccc23)NC(=O)[C@H](CCCNC(=N)N)N(C)C(=O)[C@@H](Cc2ccccc2)NC(=O)[C@H](CCCNC(=N)N)NC(=O)[C@@H](C)NC1=O) [CTX-1284] ?
0.15
